Each record here notes measured Population Mitotic Cells (%).
system: Fibroblast; assay: Multiplex assay against human fibroblast; format: toxicity, cell-based; settings: 48 h, 1 µM, compound concentration 1 uM, replicate 1
Lab book: enter the figure in %, no units written.

Please review the entries below; each comes with its answer.
{"columns": ["COMPOUND", "Population Mitotic Cells (%)"],
 "data": [
  ["Cl.N=C(N)NC(=O)Cc1c(Cl)cccc1Cl [GUANFACINE HYDROCHLORIDE]", 38],
  ["N#Cc1c(Oc2cccc(OS(=O)(=O)CCCC(F)(F)F)c2)cccc1C(F)(F)F", 40],
  ["CC(C)c1noc(N2CCC(COc3ccc(-c4ccc(S(C)(=O)=O)cc4)nc3)CC2)n1", 33],
  ["Br.CS(=O)(=O)Nc1c(O)ccc2c1CCCC2C1=NCCN1 (stereo unspecified)", 42],
  ["CC(C)COc1ccc(CNC(=O)N(Cc2ccc(F)cc2)C2CCN(C)CC2)cc1", 11]
]}

Now consider the entry below.
Any idea what Population Mitotic Cells (%) was measured for `O=C(CCCc1ccccc1)Nc1nc2ccccc2c(=O)s1` ?
40
